TGI by entry:
# Test system: BT-549 breast
# method: NCI tumour cell line growth inhibition, 48 h

compound	tested-target	TGI
O=C(O)c1ccccc1CC1Cc2ccccc2C1=O (stereo not drawn)	BT-549 breast	> 100 µM
O=c1c2sccc2n(CC2COc3ccccc3O2)c(=O)n1O (stereo not drawn)	BT-549 breast	> 100 µM
Cc1ccc(C(=C2Sc3ccccc3S2)C(=C2Sc3ccccc3S2)c2ccc(C)s2)s1	BT-549 breast	> 100 µM
C=C1NC(=O)C(C(C)CC)NC(=O)C2CSCC(NC(=O)CCC(=O)O)C(=O)NC(Cc3ccccc3)C(=O)NC(C)C(=O)NC(CC(C)CC)C(=O)NC(C(=O)NC(Cc3ccccc3)C(=O)N3CCCC3C(=O)N2)C(C)OC(=O)C(CO)NC(=O)C(C(O)COC)N(C)C(=O)C(C(C)C)NC(=O)C(CC(C)CC)NC1=O (stereo not drawn)	BT-549 breast	> 6 µM
CC1CCC(C(=O)O)(C(Br)C(=O)O)CC1 (stereo not drawn)	BT-549 breast	> 100 µM
COc1cc2c(c(OC)c1OC)-c1ccc(OC)c(=O)cc1C(NC(=O)c1ccc(N=[N+]=[N-])cc1)CC2 (stereo not drawn)	BT-549 breast	> 100 µM
O=C(O)/C=C(/C(=O)O)C12CCN3CC4=CCOC5CC(=O)NC1C5C4CC32 (stereo not drawn)	BT-549 breast	> 100 µM
Fc1cc2[nH]ncc2c2c3c(c(-c4cn[nH]c4)nc12)CCCC3	BT-549 breast	4.94 µM

---

# Test system: SF-268 CNS
# method: NCI tumour cell line growth inhibition, 48 h
readout: GI50

compound-string	readout	result
[Cl-].[La+3].[O-]/N=C(\c1ccccc1)c1ccccn1.[O-]/N=C(\c1ccccc1)c1ccccn1.[O-]/N=C(\c1ccccc1)c1ccccn1	GI50	46 µM
CC[C@H](Nc1ncnc2nc[nH]c12)c1oc2ccccc2c(=O)c1-c1cccc(F)c1	GI50	22.6 µM
COc1ccc(/C=C(/C#N)n2nnc3cccc(F)c32)cc1	GI50	2.31 µM
O=C(CSc1ccc(Cl)cc1)Nc1ccc(-c2nc3ccccc3s2)c(Cl)c1	GI50	3.24 µM
Cc1cccc(NC(=O)Cn2cnc3sc(C(=O)OC(C)C)c(C)c3c2=O)c1	GI50	18.8 µM
CCN1CCN(c2nc(C)cc(N(CCNc3ccnc4cc(Cl)ccc34)Cc3ccc4c(c3)OCO4)n2)CC1	GI50	2.09 µM
COc1cc(/C=C/c2cc(O)c(C(C)=O)c(O)c2)cc2c1O[C@]1(C)CC[C@@H](O)C(C)(C)[C@H]1C2	GI50	5.86 µM
COc1ccc([C@H]2[C@@H](F)C(=O)N2c2cc(OC)c(OC)c(OC)c2)cc1F	GI50	0.324 µM
Cc1cc(I)cc(CN(C)CCCN2CCCCC2)c1O	GI50	13.1 µM
O=C(CCc1nnc2sc(-c3ccc(Cl)cc3Cl)nn12)c1nc2ncccc2[nH]1	GI50	3.99 µM
CCCCCCCC(=O)SCC/C=C/[C@@H]1CC(=O)NCc2cc(ccn2)C2=N[C@@](C)(CS2)C(=O)N[C@@H](C(C)C)C(=O)O1	GI50	0.0387 µM

---

# Tested on: HS 578T breast
# method: NCI tumour cell line growth inhibition, 48 h

molecule	unit-of-measure	readout-relation	TGI
CN(C(=O)c1ccc(C(F)(F)F)cc1)c1ccc(Oc2ccc3c(c2)cc(C(=O)N2CCN(Cc4ccc(OC(F)F)cc4)CC2)n3C)nc1	µM	>	100
O=[N+]([O-])C(/C=C(\Cl)n1nnc2ccccc21)=C(/Cl)n1nnc2ccccc21	µM	>	100
C=C1C(=O)O[C@H]2[C@H]1CC/C(COC(=O)c1c[nH]c3ccccc13)=C\CC[C@@]1(C)O[C@@H]21	µM	=	6.83
ClCc1cccc(Cn2cnc3ncnc(Cl)c32)c1	µM	=	42.3
C=C(Br)C(C)(Br)CCC(Br)C(C)(C)Cl (stereo not given)	µM	=	72
OC(c1nc2ccccc2[nH]1)C(O)C(O)C(O)c1nc2ccccc2[nH]1 (stereo not given)	µM	>	100
C=CCSc1nnc2cc(CN3CCCC3)c(-c3ccc(Cl)cc3)nn12	µM	>	100
COc1cc(OC)cc(-c2cc(=O)c3c(OC)c(OC)c(OC)c(OC)c3o2)c1	µM	=	90.6
COc1cc(NS(C)(=O)=O)ccc1Nc1cc(C)[nH]c2ccc3nccc3c12	µM	>	100
Cc1ccc(C(=C2Sc3ccccc3S2)C(=C2Sc3ccccc3S2)c2ccc(C)s2)s1	µM	>	100
N=Nc1c(OC(=O)Nc2cccc(Cl)c2)[nH]c2ccccc12	µM	=	40
Cc1c(S(=O)(=O)c2ccccc2)c(N)n(CCN(C)C)c1C	µM	>	100
CCOC(=O)C1=C(C)C2C=C(c3cccs3)CC(c3ccc(Cl)cc3)=C2OC1=O (stereo not given)	µM	>	100
O=C(/C=C/c1ccc(Cl)cc1)c1ccc(Nc2ccnc3cc(Cl)ccc23)cc1	µM	>	100
CCOP(=O)(OCC)C(c1ccc(F)cc1)N(C(=O)NC(F)(F)F)c1ccc(OC)cc1 (stereo not given)	µM	>	100
Cc1ccc(S(=O)(=O)N/N=C/C2(c3ccccc3)c3ccccc3-c3ccccc32)cc1	µM	=	39.3
COc1cc2c3c(n(C)c(=O)c2cc1OC)-c1cc2c(cc1/C3=C\CCCN)OCO2	µM	=	87.6
COc1ncnc(NS(=O)(=O)c2ccc(N=C3C(=O)N(CN4CCN(c5c(F)cc6c(=O)c(C(=O)O)cn(C7CC7)c6c5OC)CC4C)c4ccc(Cl)cc43)cc2)c1OC (stereo not given)	µM	>	50
OCc1ccc(-c2ccc(-c3ccc(CO)s3)o2)s1	µM	=	86.6
Cc1cc(O)c(/C=N/C(=S)NCc2ccccc2)c(=O)o1	µM	>	100

---

# System: HT29 colon
# method: NCI tumour cell line growth inhibition, 48 h; in the data active = GI50 below about 0.43 µM; inactive = the rest
Outcomes: true (1) for active, false (0) for inactive

compound-string	tested-target	group
CCN1CCN(c2nc(C)cc(N(CCNc3ccnc4cc(Cl)ccc34)Cc3ccc4c(c3)OCO4)n2)CC1	HT29 colon	false (0)
COc1cc2c3c(n(C)c(=O)c2cc1OC)-c1cc2c(cc1/C3=C\CCN)OCO2	HT29 colon	true (1)
CO[C@H]1/C=C(/C)CCC[C@H](C)[C@H](O)[C@@H](C)C(=O)C(C)(C)[C@@H](O)CC(=O)O[C@@H]1/C(C)=C/c1csc(C)n1	HT29 colon	true (1)
CC[C@H](Nc1ncnc2nc[nH]c12)c1oc2ccccc2c(=O)c1-c1cccc(F)c1	HT29 colon	false (0)
COc1ccc(/C=C(/C#N)n2nnc3cccc(F)c32)cc1	HT29 colon	true (1)
CC(C)[C@H]1COC(=O)N1[C@@H]1C(=O)N([C@@H](CCC(=O)N2CCN(C3CCCC3)CC2)C(=O)N[C@@H]2CCCc3ccccc32)[C@@H]1/C=C/c1cccc(Br)c1	HT29 colon	false (0)

---

# Test system: MOLT-4 leukemia
# method: NCI tumour cell line growth inhibition, 48 h
TGI by entry:

molecule	tested-target	unit-of-measure	readout-relation	TGI
CCOC(=O)C1=C(C)C2C=C(c3cccs3)CC(c3ccc(Cl)cc3)=C2OC1=O (stereo unspecified)	MOLT-4 leukemia	µM	>	100
Cc1cc(C(=O)CCCCOc2ccc(C3=NCCO3)cc2)c(C)n1C	MOLT-4 leukemia	µM	=	34.4
OCCCCCNCc1cc2cc3c(cc2c2cc(OCc4ccccc4)ccc12)OCO3	MOLT-4 leukemia	µM	=	4.55
N#CC12C(=O)N=C(N)C1(C#N)C(c1ccco1)NC1=C2CCCC1 (stereo unspecified)	MOLT-4 leukemia	µM	>	100
CN(C)c1ccc(/C=C(\NC(=O)c2ccccc2)c2nc3ncncc3[nH]2)cc1	MOLT-4 leukemia	µM	>	100
COc1ccc2c(C)cc(=O)oc2c1OC	MOLT-4 leukemia	µM	>	100
Nc1ncnc2c1nnn2C1OC(CO)C(O)C1O (stereo unspecified)	MOLT-4 leukemia	µM	=	22.2
COc1ccc(C2=N/C(=C\c3ccccc3)C(=O)O2)cc1	MOLT-4 leukemia	µM	=	52.6
OC(c1nc2ccccc2[nH]1)C(O)C(O)C(O)c1nc2ccccc2[nH]1 (stereo unspecified)	MOLT-4 leukemia	µM	>	100
COc1ccc(-c2nnc(COc3ccc(C(=O)/C=C/c4ccco4)cc3)o2)cc1	MOLT-4 leukemia	µM	=	9.05
COP(=O)(/C=C/c1cc(C(=O)OCc2ccccc2)n(S(=O)(=O)c2ccccc2)c1)OC	MOLT-4 leukemia	µM	>	100
Cn1c2ccccc2c2cc(-c3ccccc3)c3c(c21)C(=O)c1ccccc1C3=O	MOLT-4 leukemia	µM	=	92.7
Cc1cc(/C=C/c2ccc3cc(N(C)C)ccc3[n+]2C)c(C)n1-c1ccccc1	MOLT-4 leukemia	µM	=	2.52
Brc1ccccc1C1SCc2nc3ccccc3n21 (stereo unspecified)	MOLT-4 leukemia	µM	>	100
Cc1cc2c3c(nc4ccccc42)C(=O)c2ccccc2-c3n1	MOLT-4 leukemia	µM	=	24.1
COc1cccc2c(=O)oc(-c3ccc(C(C)(C)C)cc3)nc12	MOLT-4 leukemia	µM	=	48.2
CC1=NN(c2cccc(Cl)c2)C2(C1=C/C=C/c1ccccc1)C(Cl)C(=O)N2c1nc2ccccc2s1 (stereo unspecified)	MOLT-4 leukemia	µM	=	12.1
CN1CSC(=S)N(c2c3ccccc3nc3ccc(Br)cc23)C1	MOLT-4 leukemia	µM	=	5.87
CCCCCCCC(=O)SCC/C=C/[C@@H]1CC(=O)NCc2cc(ccn2)C2=N[C@@](C)(CS2)C(=O)N[C@@H](C(C)C)C(=O)O1	MOLT-4 leukemia	µM	>	28.7
CC[C@H](Nc1ncnc2nc[nH]c12)c1oc2ccccc2c(=O)c1-c1cccc(F)c1	MOLT-4 leukemia	µM	=	49.1
CC(C)(C)OC(=O)N[C@H]1CC2(C=C(Cl)C(=O)C(Cl)=C2)OC1=O	MOLT-4 leukemia	µM	=	15.7
Cc1nc(N)c(N2CCN([N+](=O)[O-])CC2)c(=O)[nH]1	MOLT-4 leukemia	µM	>	100
C=C1C(=O)O[C@H]2[C@H]1CC/C(COC(=O)c1c[nH]c3ccccc13)=C\CC[C@@]1(C)O[C@@H]21	MOLT-4 leukemia	µM	=	1.45
O=C1c2cc3c(cc2-c2c1c1ccc(F)cc1c(=O)n2CCCNCCO)OCO3	MOLT-4 leukemia	µM	=	1.24
CCc1cc(Cc2cc(CC)c(NC(=O)C(=O)Cc3ccccn3)c(CC)c2Cl)c(Cl)c(CC)c1NC(=O)C(=O)Cc1ccccn1	MOLT-4 leukemia	µM	>	100
CCN(CCCN(CC)C(=O)Nc1c(C)cccc1C)C(=O)Nc1c(C)cccc1C	MOLT-4 leukemia	µM	>	100
Cc1ccc(S(=O)(=O)N/N=C/C2(c3ccccc3)c3ccccc3-c3ccccc32)cc1	MOLT-4 leukemia	µM	>	100
COc1cc(OC)cc(-c2cc(=O)c3c(OC)c(OC)c(OC)c(OC)c3o2)c1	MOLT-4 leukemia	µM	>	100
NC1=NCC(CN2CCOCC2)O1 (stereo unspecified)	MOLT-4 leukemia	µM	>	100
OCC#Cc1ccccc1C#Cc1ccccc1	MOLT-4 leukemia	µM	>	100
CC(C)OP(=O)(OC(C)C)C(=NCCN=C(NNc1ccc([N+](=O)[O-])cc1)P(=O)(OC(C)C)OC(C)C)NNc1ccc([N+](=O)[O-])cc1	MOLT-4 leukemia	µM	>	100
CSC(=S)N/N=C(\C)c1ccc(S(=O)(=O)N(C)c2ccccc2)cc1	MOLT-4 leukemia	µM	>	100
CCN1c2ccccc2C(C(SC)S(=O)(=O)c2ccc(C)cc2)c2c1[nH]c(=O)n(C)c2=O (stereo unspecified)	MOLT-4 leukemia	µM	>	100
Cc1c(S(=O)(=O)c2ccccc2)c(N)n(CCN(C)C)c1C	MOLT-4 leukemia	µM	>	100
Cc1cc(I)cc(CN(C)CCCN2CCCCC2)c1O	MOLT-4 leukemia	µM	=	13.4
COc1ccc([C@H]2[C@@H](F)C(=O)N2c2cc(OC)c(OC)c(OC)c2)cc1F	MOLT-4 leukemia	µM	=	93.4
O=C(O)c1ccccc1CC1Cc2ccccc2C1=O (stereo unspecified)	MOLT-4 leukemia	µM	>	100
CSc1nc(NC2OCC(OC(C)=O)C(OC(C)=O)C2OC(C)=O)c(N=CC=Nc2c(NC3OCC(OC(C)=O)C(OC(C)=O)C3OC(C)=O)nc(SC)[nH]c2=O)c(=O)[nH]1 (stereo unspecified)	MOLT-4 leukemia	µM	>	100
CC(=O)Nc1nc(C#N)[nH]c1C#N	MOLT-4 leukemia	µM	>	100
COc1cccc2c1OC1(C=C2)Oc2ccccc2C(=O)N1C (stereo unspecified)	MOLT-4 leukemia	µM	=	81.4
NS(=O)(=O)c1cc(Cl)c(NC(=S)NC(=O)Nc2ccc(Cl)c(Cl)c2)c(Cl)c1	MOLT-4 leukemia	µM	>	100
